MEASURED TARGET: Alpha-2A adrenergic receptor (Homo sapiens, UniProt P08913)
Sequence (P08913 whole entry): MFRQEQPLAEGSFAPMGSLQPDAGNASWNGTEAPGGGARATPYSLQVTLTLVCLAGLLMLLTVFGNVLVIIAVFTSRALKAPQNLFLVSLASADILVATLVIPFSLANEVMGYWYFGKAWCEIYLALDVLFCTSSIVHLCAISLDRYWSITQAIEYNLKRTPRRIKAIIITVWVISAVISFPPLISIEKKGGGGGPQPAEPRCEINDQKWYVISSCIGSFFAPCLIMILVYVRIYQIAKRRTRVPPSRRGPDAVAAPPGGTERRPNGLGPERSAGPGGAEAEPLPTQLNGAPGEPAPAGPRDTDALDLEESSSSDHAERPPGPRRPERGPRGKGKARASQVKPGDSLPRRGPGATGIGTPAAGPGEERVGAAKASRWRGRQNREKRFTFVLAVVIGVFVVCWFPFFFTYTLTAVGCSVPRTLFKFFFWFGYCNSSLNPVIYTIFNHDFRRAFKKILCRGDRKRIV
pKi: −log10 of the molar value. Numbered stars: 1 amine (or outer) side, 2 acyl side, 3 side chain; on linkers, the order of the positions; unused ones are H or OH. Square brackets hold non-standard residues; d marks the D form. Peptide text beside a SMILES is read from it. * marks the point of attachment. Cyclohexylacetyl(1-SH) = O=C(CC1(S)CCCCC1)*; X1 = O=C(C(C=S)N[*:1])[*:2]
Label 1 when pKi is at or above 7; otherwise label -1.

Some entries whose results are on file:
INPUT: Entry Cc1cccc(C)c1CCc1cnc[nH]1 [CAS_133305] : is its pKi no less than 7?
OUTPUT: 1

INPUT: Entry c1cn2ccnc2c(N2CCNCC2)n1 [L-639,019] : is its pKi no less than 7?
OUTPUT: 1

INPUT: Entry c1ccc2c(c1)OCC(CN1CCCCC1)O2 (stereo unspecified) [Piperoxan] : is its pKi no less than 7?
OUTPUT: 1

INPUT: Entry `OCCN1CCN(CCCN2c3ccccc3Sc3ccc(C(F)(F)F)cc32)CC1` : is its pKi no less than 7?
OUTPUT: -1

INPUT: Entry CCCN(CCC)C1CCc2cccc(O)c2C1 (stereo unspecified) : is its pKi no less than 7?
OUTPUT: -1

INPUT: Entry `CCCCS(=O)(=O)N(C)[C@H]1CCN2CCc3ccccc3[C@H]2C1` : is its pKi no less than 7?
OUTPUT: 1

INPUT: Entry CCOc1ccc(CC(NC(=O)CC2(S)CCCCC2)C(=O)NC(Cc2ccccc2)C(=O)NC(C(=O)NC(CC(N)=O)C(=O)NC(C=S)C(=O)NC(CCCCN)C(N)=O)C(C)C)cc1 (stereo unspecified) [CAS_196343] ({Cyclohexylacetyl(1-SH)}-Y(Et)FVN[X1]K-NH2; configuration not given here) : is its pKi no less than 7?
OUTPUT: 1

INPUT: Entry O=C1NCN(c2ccccc2)C12CCN(CC1COc3ccccc3O1)CC2 (stereo unspecified) : is its pKi no less than 7?
OUTPUT: 1

***
INPUT: Entry CN1C[C@H](Cn2ccnc2-c2ccccc2)C[C@@H]2c3cccc4[nH]c(Br)c(c34)C[C@H]21 [BAM-1303] : is its pKi no less than 7?
OUTPUT: 1

INPUT: Entry Clc1cccc2c1CN(NC1=NCCN1)C2 [CAS_76727-72-5] : is its pKi no less than 7?
OUTPUT: 1

INPUT: Entry CC(C)=CCOc1ccc(Cl)c2c1CCN(C)CC2 [SK&F-104078] : is its pKi no less than 7?
OUTPUT: 1

---

MEASURED TARGET: Alpha-2B adrenergic receptor (Rattus norvegicus)
Sequence (P19328 whole entry): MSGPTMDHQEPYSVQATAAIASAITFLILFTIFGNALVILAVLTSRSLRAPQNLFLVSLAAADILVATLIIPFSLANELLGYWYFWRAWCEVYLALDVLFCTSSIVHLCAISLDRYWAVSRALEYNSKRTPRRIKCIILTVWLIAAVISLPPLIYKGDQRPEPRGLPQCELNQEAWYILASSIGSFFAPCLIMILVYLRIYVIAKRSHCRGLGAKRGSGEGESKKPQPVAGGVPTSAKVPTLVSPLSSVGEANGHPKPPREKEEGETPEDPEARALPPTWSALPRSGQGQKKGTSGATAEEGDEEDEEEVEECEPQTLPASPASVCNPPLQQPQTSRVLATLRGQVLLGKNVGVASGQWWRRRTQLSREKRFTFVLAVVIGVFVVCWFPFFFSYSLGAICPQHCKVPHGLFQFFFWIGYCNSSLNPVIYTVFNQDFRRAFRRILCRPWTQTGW
Numbered stars: 1 amine (or outer) side, 2 acyl side, 3 side chain; on linkers, the order of the positions; unused ones are H or OH. Square brackets hold non-standard residues; d marks the D form. Peptide text beside a SMILES is read from it. * marks the point of attachment. Cyclohexylacetyl(1-SH) = O=C(CC1(S)CCCCC1)*; X1 = O=C(C(C=S)N[*:1])[*:2]
I'd appreciate it if you marked entries y when Ki is lower than 5 nM and n when it is not.

INPUT: Decide: Ki of CCCN(CCC)C1CCc2cccc(O)c2C1 (stereo not drawn) strictly below 5 nM?
OUTPUT: n

INPUT: Decide: Ki of CCOc1ccc(CC(NC(=O)CC2(S)CCCCC2)C(=O)NC(Cc2ccccc2)C(=O)NC(C(=O)NC(CC(N)=O)C(=O)NC(C=S)C(=O)NC(CCCCN)C(N)=O)C(C)C)cc1 (stereo not drawn) [CAS_196343] ({Cyclohexylacetyl(1-SH)}-Y(Et)FVN[X1]K-NH2; configuration not given here) strictly below 5 nM?
OUTPUT: y

INPUT: Decide: Ki of `Cc1nc2n(c(=O)c1CCN1CCC(C(=O)c3ccc(F)cc3)CC1)CCS2` strictly below 5 nM?
OUTPUT: n

INPUT: Decide: Ki of `CC(C)=CCOc1ccc(Cl)c2c1CCN(C)CC2` strictly below 5 nM?
OUTPUT: n

INPUT: Decide: Ki of CN1c2ccc(F)cc2CC1C1=NCCN1 (stereo not drawn) strictly below 5 nM?
OUTPUT: y

INPUT: Decide: Ki of c1ccc2c(c1)OCC(CN1CCCCC1)O2 (stereo not drawn) strictly below 5 nM?
OUTPUT: y

***
INPUT: Decide: Ki of `OCCN1CCN(CCCN2c3ccccc3Sc3ccc(C(F)(F)F)cc32)CC1` strictly below 5 nM?
OUTPUT: n

INPUT: Decide: Ki of O=C1c2ccccc2CCC1CNCCc1ccc(O)cc1 (stereo not drawn) strictly below 5 nM?
OUTPUT: y

INPUT: Decide: Ki of `C=CCN1Cc2ccccc2-c2ccccc2C1` strictly below 5 nM?
OUTPUT: n

INPUT: Decide: Ki of COc1cccc(OC)c1OCCNCC1Oc2ccccc2OC1c1ccccc1 (stereo not drawn) strictly below 5 nM?
OUTPUT: n

INPUT: Decide: Ki of `Clc1cccc2c1CN(NC1=NCCN1)C2` strictly below 5 nM?
OUTPUT: y

INPUT: Decide: Ki of `CN1CCc2cccc(Cl)c2CC1` strictly below 5 nM?
OUTPUT: y

INPUT: Decide: Ki of COc1ccccc1N1CCN(CCC2C(=O)c3ccccc3C(C)(C)C2=O)CC1 (stereo not drawn) strictly below 5 nM?
OUTPUT: y

INPUT: Decide: Ki of `O=C(c1ccc(F)cc1)C1CCN(CCn2c(=O)[nH]c3ccccc3c2=O)CC1` strictly below 5 nM?
OUTPUT: n

INPUT: Decide: Ki of CN1CCC2(CCN3CCc4c(oc5ccccc45)C3C2)N(C)C1=O (stereo not drawn) strictly below 5 nM?
OUTPUT: y

---

MEASURED TARGET: Alpha-2B adrenergic receptor (Rattus norvegicus)
Sequence (P19328 whole entry): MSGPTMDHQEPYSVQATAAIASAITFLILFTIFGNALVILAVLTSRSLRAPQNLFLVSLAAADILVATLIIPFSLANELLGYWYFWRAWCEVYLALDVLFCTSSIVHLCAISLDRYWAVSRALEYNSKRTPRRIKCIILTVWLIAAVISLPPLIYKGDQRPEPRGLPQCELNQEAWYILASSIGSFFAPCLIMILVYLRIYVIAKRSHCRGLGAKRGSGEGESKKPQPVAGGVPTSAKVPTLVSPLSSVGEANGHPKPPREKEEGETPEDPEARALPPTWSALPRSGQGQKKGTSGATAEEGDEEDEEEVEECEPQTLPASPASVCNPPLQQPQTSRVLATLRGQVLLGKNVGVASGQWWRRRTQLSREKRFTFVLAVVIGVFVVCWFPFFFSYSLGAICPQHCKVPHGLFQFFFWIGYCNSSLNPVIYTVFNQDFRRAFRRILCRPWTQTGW
PROPERTY NAME: Ki

INPUT: // lookup Ki for `CC(C)(C)[C@]1(O)CCN2C[C@H]3c4ccccc4CCc4cccc(c43)[C@@H]2C1`
OUTPUT: 12 nM

INPUT: // lookup Ki for `Cc1cccc(C)c1CCc1cnc[nH]1`
OUTPUT: 18 nM

INPUT: // lookup Ki for Oc1ccc(C2CNCCc3c2cc(O)c(O)c3Cl)cc1 (stereo not drawn)
OUTPUT: 91 nM

INPUT: // lookup Ki for `CCCCS(=O)(=O)N(C)[C@H]1CCN2CCc3ccccc3[C@H]2C1`
OUTPUT: 1.7 nM

INPUT: // lookup Ki for O=C1NCN(c2ccccc2)C12CCN(CC1COc3ccccc3O1)CC2 (stereo not drawn)
OUTPUT: 0.34 nM

INPUT: // lookup Ki for `Clc1cncc(N2CCNCC2)n1`
OUTPUT: 125 nM

***
INPUT: // lookup Ki for CS(=O)(=O)NCCN(C1CCN2CCc3ccccc3C2C1)S(C)(=O)=O (stereo not drawn)
OUTPUT: 5.2 nM

INPUT: // lookup Ki for `Fc1cccnc1N1CCNCC1`
OUTPUT: 23 nM
